meta.source: the supplement of paper PMC10567573

B1: MATN2 (parent)
chain: FSLKTFKRKSEVERAVKRMRHLST

Variants of: B1
test-protocol: protein stability index of a GFP-peptide fusion (GPS, HEK-293T) (PSI 1-6); higher = more stable;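 note: lentivirally expressed fusions sorted by FACS into six bins by GFP to DsRed ratio, PSI derived from sequencing read proportions per bin multiplied by bin number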
condition-set: c terminus: a fixed tail appended
Classify by measured protein stability index: satisfied if it is equal to or exceeds 2, not satisfied if it is smaller.

Determine whether measured protein stability index meets or exceeds 2 for FSLKTFKRKSEVERAVKRMIHLST [R20I]
satisfied

Determine whether measured protein stability index meets or exceeds 2 for FSLKTFKRKSEVSRAVKRMRHLST [E13S]
satisfied

Determine whether measured protein stability index meets or exceeds 2 for FSLKMFKRKSEVERAVKRMRHLST [T5M]
satisfied

Determine whether measured protein stability index meets or exceeds 2 for FSLKTFKRKSEVEPAVKRMRHLST [R14P]
satisfied

Determine whether measured protein stability index meets or exceeds 2 for FSLKTFKRKSEVERVVKRMRHLST [A15V]
satisfied

Determine whether measured protein stability index meets or exceeds 2 for FSLKTFKRKSEVERRVKRMRHLST [A15R]
satisfied

Determine whether measured protein stability index meets or exceeds 2 for FSLMTFKRKSEVERAVKRMRHLST [K4M]
satisfied

Determine whether measured protein stability index meets or exceeds 2 for FSLKTFMRKSEVERAVKRMRHLST [K7M]
satisfied

Determine whether measured protein stability index meets or exceeds 2 for FSLKTFKRKSEVERAEKRMRHLST [V16E]
satisfied

Determine whether measured protein stability index meets or exceeds 2 for FSLKTFKRKSEVERAVQRMRHLST [K17Q]
satisfied

Determine whether measured protein stability index meets or exceeds 2 for FSLKTFKRESEVERAVKRMRHLST [K9E]
not satisfied

Determine whether measured protein stability index meets or exceeds 2 for ISLKTFKRKSEVERAVKRMRHLST [F1I]
satisfied

Determine whether measured protein stability index meets or exceeds 2 for FSLKTFKRKSEVERKVKRMRHLST [A15K]
satisfied

Determine whether measured protein stability index meets or exceeds 2 for FSLKTFKRKKEVERAVKRMRHLST [S10K]
satisfied

Determine whether measured protein stability index meets or exceeds 2 for FSLKTFKRKSEVERAVKRDRHLST [M19D]
satisfied

Determine whether measured protein stability index meets or exceeds 2 for FSLKTFKRKSEVERACKRMRHLST [V16C]
satisfied

Determine whether measured protein stability index meets or exceeds 2 for FSLKLFKRKSEVERAVKRMRHLST [T5L]
not satisfied

Determine whether measured protein stability index meets or exceeds 2 for FSLKPFKRKSEVERAVKRMRHLST [T5P]
satisfied

Determine whether measured protein stability index meets or exceeds 2 for FSLKTFKRKSEVERAVARMRHLST [K17A]
satisfied

Determine whether measured protein stability index meets or exceeds 2 for CSLKTFKRKSEVERAVKRMRHLST [F1C]
satisfied

Determine whether measured protein stability index meets or exceeds 2 for FSLKTFKRKSEVERAVYRMRHLST [K17Y]
not satisfied

Determine whether measured protein stability index meets or exceeds 2 for KSLKTFKRKSEVERAVKRMRHLST [F1K]
satisfied

Determine whether measured protein stability index meets or exceeds 2 for FSLKTFKRKSEVERAVKRMYHLST [R20Y]
satisfied

Determine whether measured protein stability index meets or exceeds 2 for FSLKTFKRKSEVERAVKRMRVLST [H21V]
not satisfied

Determine whether measured protein stability index meets or exceeds 2 for FSLKTFKRKSEVERAVKRMRNLST [H21N]
satisfied

Determine whether measured protein stability index meets or exceeds 2 for FSLKTFKRKSEVCRAVKRMRHLST [E13C]
not satisfied

Determine whether measured protein stability index meets or exceeds 2 for FSLKTFGRKSEVERAVKRMRHLST [K7G]
satisfied

Determine whether measured protein stability index meets or exceeds 2 for FSLKTFKRKSMVERAVKRMRHLST [E11M]
satisfied

Determine whether measured protein stability index meets or exceeds 2 for FSLKGFKRKSEVERAVKRMRHLST [T5G]
satisfied

Determine whether measured protein stability index meets or exceeds 2 for FSLKTFKRKSEVERAVKRTRHLST [M19T]
satisfied

Determine whether measured protein stability index meets or exceeds 2 for FSLKTFKRKSEVERAVKRMRHSST [L22S]
not satisfied

Determine whether measured protein stability index meets or exceeds 2 for FSLKTEKRKSEVERAVKRMRHLST [F6E]
satisfied

Determine whether measured protein stability index meets or exceeds 2 for FSLKTTKRKSEVERAVKRMRHLST [F6T]
satisfied

Determine whether measured protein stability index meets or exceeds 2 for FSLKTFKRKSEVERAVKRMRHLSS [T24S]
satisfied

Determine whether measured protein stability index meets or exceeds 2 for FSLITFKRKSEVERAVKRMRHLST [K4I]
satisfied

Determine whether measured protein stability index meets or exceeds 2 for FNLKTFKRKSEVERAVKRMRHLST [S2N]
satisfied

Determine whether measured protein stability index meets or exceeds 2 for FSLKTFKRKSEVERAVLRMRHLST [K17L]
not satisfied

Determine whether measured protein stability index meets or exceeds 2 for FSLKTFKDKSEVERAVKRMRHLST [R8D]
satisfied

Determine whether measured protein stability index meets or exceeds 2 for FSLKTFKRKSEVERAVKRMRHYST [L22Y]
not satisfied

Determine whether measured protein stability index meets or exceeds 2 for FSLKTFKQKSEVERAVKRMRHLST [R8Q]
satisfied

Determine whether measured protein stability index meets or exceeds 2 for FSLKTFKRKSEVERAVKRMRCLST [H21C]
satisfied

Determine whether measured protein stability index meets or exceeds 2 for FSLKTFKRKSEVERAVKRMRHLSE [T24E]
satisfied

Determine whether measured protein stability index meets or exceeds 2 for FSLKTFKRKSVVERAVKRMRHLST [E11V]
satisfied

Determine whether measured protein stability index meets or exceeds 2 for FSLKTFKRKSEVERAVKRMRHLVT [S23V]
not satisfied

Determine whether measured protein stability index meets or exceeds 2 for FSLKTFKRKSEVERAVKSMRHLST [R18S]
satisfied

Determine whether measured protein stability index meets or exceeds 2 for FELKTFKRKSEVERAVKRMRHLST [S2E]
satisfied

Determine whether measured protein stability index meets or exceeds 2 for FSLKTFKRKSEQERAVKRMRHLST [V12Q]
satisfied

Determine whether measured protein stability index meets or exceeds 2 for FSLKTFKRDSEVERAVKRMRHLST [K9D]
satisfied

Determine whether measured protein stability index meets or exceeds 2 for FSLKTFKRKSEVERAVKRMRHLPT [S23P]
satisfied

Determine whether measured protein stability index meets or exceeds 2 for FSLKTFWRKSEVERAVKRMRHLST [K7W]
not satisfied

Determine whether measured protein stability index meets or exceeds 2 for FSLKTFKRKSPVERAVKRMRHLST [E11P]
satisfied

Determine whether measured protein stability index meets or exceeds 2 for FSPKTFKRKSEVERAVKRMRHLST [L3P]
satisfied

Determine whether measured protein stability index meets or exceeds 2 for FSLKTFKRKSEVERATKRMRHLST [V16T]
satisfied

Determine whether measured protein stability index meets or exceeds 2 for FSLKTFKRKSEVEWAVKRMRHLST [R14W]
satisfied

Determine whether measured protein stability index meets or exceeds 2 for FSLKTFKRKSEVERAVKRMRHKST [L22K]
satisfied

Determine whether measured protein stability index meets or exceeds 2 for FSLKTFKRKSEVESAVKRMRHLST [R14S]
satisfied

Determine whether measured protein stability index meets or exceeds 2 for FSLKTFKRKSEVERFVKRMRHLST [A15F]
satisfied

Determine whether measured protein stability index meets or exceeds 2 for FSLKTFKRKSEVERAVKRMTHLST [R20T]
satisfied

Determine whether measured protein stability index meets or exceeds 2 for FSLKTFKRMSEVERAVKRMRHLST [K9M]
satisfied

Determine whether measured protein stability index meets or exceeds 2 for FSLKTFKRKEEVERAVKRMRHLST [S10E]
satisfied

Determine whether measured protein stability index meets or exceeds 2 for FSLKTFSRKSEVERAVKRMRHLST [K7S]
not satisfied

Determine whether measured protein stability index meets or exceeds 2 for FSLKTFKRYSEVERAVKRMRHLST [K9Y]
satisfied

Determine whether measured protein stability index meets or exceeds 2 for FYLKTFKRKSEVERAVKRMRHLST [S2Y]
not satisfied

Determine whether measured protein stability index meets or exceeds 2 for FSLKTFKRKSEVERAVKRMRYLST [H21Y]
satisfied

Determine whether measured protein stability index meets or exceeds 2 for FSLKTFKRKSEVERAVKRMRHLSP [T24P]
satisfied

Determine whether measured protein stability index meets or exceeds 2 for FSLKTFKRKSEVEVAVKRMRHLST [R14V]
satisfied

Determine whether measured protein stability index meets or exceeds 2 for FSLKTFKRKSEVVRAVKRMRHLST [E13V]
satisfied

Determine whether measured protein stability index meets or exceeds 2 for FALKTFKRKSEVERAVKRMRHLST [S2A]
not satisfied

Determine whether measured protein stability index meets or exceeds 2 for FSLKVFKRKSEVERAVKRMRHLST [T5V]
not satisfied

Determine whether measured protein stability index meets or exceeds 2 for FSLKTFKRKSEKERAVKRMRHLST [V12K]
satisfied

Determine whether measured protein stability index meets or exceeds 2 for FSLKTFKKKSEVERAVKRMRHLST [R8K]
satisfied

Determine whether measured protein stability index meets or exceeds 2 for FSLKTFKRKMEVERAVKRMRHLST [S10M]
not satisfied

Determine whether measured protein stability index meets or exceeds 2 for FSLKTFKRKSEVERAVKRMRHLSD [T24D]
satisfied

Determine whether measured protein stability index meets or exceeds 2 for FSLKTFKRKSEVERAVKRMWHLST [R20W]
not satisfied

Determine whether measured protein stability index meets or exceeds 2 for FSLKTFKCKSEVERAVKRMRHLST [R8C]
satisfied

Determine whether measured protein stability index meets or exceeds 2 for GSLKTFKRKSEVERAVKRMRHLST [F1G]
satisfied

Determine whether measured protein stability index meets or exceeds 2 for FSLKTFKRKSEVERAVKRMRHFST [L22F]
satisfied

Determine whether measured protein stability index meets or exceeds 2 for FSLKTFKRKSEVERAVERMRHLST [K17E]
satisfied

Determine whether measured protein stability index meets or exceeds 2 for FSLSTFKRKSEVERAVKRMRHLST [K4S]
satisfied

Determine whether measured protein stability index meets or exceeds 2 for FSLRTFKRKSEVERAVKRMRHLST [K4R]
satisfied

Determine whether measured protein stability index meets or exceeds 2 for HSLKTFKRKSEVERAVKRMRHLST [F1H]
satisfied

Determine whether measured protein stability index meets or exceeds 2 for FSLKTFKRKSEVERAVKRMRGLST [H21G]
not satisfied

Determine whether measured protein stability index meets or exceeds 2 for FSLKTFKRKSGVERAVKRMRHLST [E11G]
satisfied

Determine whether measured protein stability index meets or exceeds 2 for FSLKTFKRKSEVIRAVKRMRHLST [E13I]
satisfied

Determine whether measured protein stability index meets or exceeds 2 for FSLKTRKRKSEVERAVKRMRHLST [F6R]
satisfied

Determine whether measured protein stability index meets or exceeds 2 for FSLKTFKRKVEVERAVKRMRHLST [S10V]
satisfied
